Data provenance is patent US8715714B2.

Molecular target: tyrosinase (Homo sapiens)
Sequence (P14679 19-529): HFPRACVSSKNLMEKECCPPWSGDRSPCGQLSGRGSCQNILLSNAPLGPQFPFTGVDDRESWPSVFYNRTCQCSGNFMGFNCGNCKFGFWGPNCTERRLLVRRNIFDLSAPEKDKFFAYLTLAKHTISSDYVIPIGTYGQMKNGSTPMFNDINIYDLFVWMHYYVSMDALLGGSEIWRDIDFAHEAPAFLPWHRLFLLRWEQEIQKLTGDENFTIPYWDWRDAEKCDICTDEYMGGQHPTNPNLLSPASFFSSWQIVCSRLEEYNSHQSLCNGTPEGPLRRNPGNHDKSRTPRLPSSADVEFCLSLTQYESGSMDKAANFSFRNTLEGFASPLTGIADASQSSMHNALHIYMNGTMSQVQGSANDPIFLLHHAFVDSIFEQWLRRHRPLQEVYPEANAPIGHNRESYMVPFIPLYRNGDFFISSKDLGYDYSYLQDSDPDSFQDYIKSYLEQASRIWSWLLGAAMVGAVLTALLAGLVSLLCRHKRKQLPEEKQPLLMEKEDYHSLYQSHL
Assay: Activity of tyrosinase in Sk-mel-31 cells
Type: cell-based
Conditions: 10 μg to 1 pg, versus control group, FIG. 7
parameter: tyrosinase activity

[Nd]    relatively lower effect
[Lu]    relatively lower effect
